Reference source: the supplement of paper PMC4466140

- assayedTarget: ScMyo3
- testDetails: SPOT peptide array binding signal intensity (averaged, normalized) (arbitrary units (background-subtracted, floor 0; scale differs between SH3 domains)); higher = stronger binding of the SH3 domain to the peptide
observationType: SPOT peptide array binding signal intensity
Give bare numbers.

IN: State, in one line, measured SPOT peptide array binding signal intensity of `RKRAPTPPAPSRSEK`
OUT: 5

Next, consider the following binder.
IN: Give recorded SPOT peptide array binding signal intensity. `HPRFVSPRIPSRIVK`
OUT: 27
